- Test system: K562
- assay: NCI tumour cell line growth inhibition, 48 h
The source made the active and inactive calls. Rule as the data show it: active = GI50 up to about 1.1 µM and inactive = higher.
# output must be one of active, inactive

- O=C(c1ccc(Br)cc1)n1c2ccc(Br)cc2c2nc3ccccc3nc21: inactive
- CCCCCCCCOCC(O)CO (stereo unspecified): inactive

**Query** In this assay, the call recorded for Cc1c(C2CCSc3ccccc3N2)sc2ccccc12 (stereo unspecified) was what?
**Result** inactive

**Query** Same for C[Si](C)(C)/C(I)=C/CO
**Result** inactive

**Query** Same for O=c1c2c3c(sc2nc2n1N=C(c1ccc(Br)cc1)CS2)CCCC3
**Result** inactive

**Query** Same for Cn1nc(-c2cccc(-c3nn(C)/c(=N\CCO)s3)n2)s/c1=N/CCO
**Result** inactive

**Query** Same for COc1ccc(C)c2c1N[C@](C)([C@]1(C)Nc3c(OC)ccc(C)c3C1=O)C2=O
**Result** inactive

**Query** Same for CC[C@H]1CN2CCc3cc(OC)c(OC)cc3[C@@H]2C[C@@H]1C[C@H]1NCCc2cc(O)c(OC)cc21
**Result** active

**Query** Same for COc1ccc(NC(=O)c2cc(OC)cc(OC)c2)cc1
**Result** inactive

**Query** Same for C=CCC1(C(=O)OC(C)(C)C)C(OC)=C(C(=O)OC(C)(C)C)C2C1C(C(=O)OC(C)(C)C)=C(OC)C2(CC=C)C(=O)OC(C)(C)C (stereo unspecified)
**Result** inactive

**Query** Same for Cn1cnc(N)c(N=O)c1=O
**Result** inactive

----------
- Test system: HCT-15
I'd appreciate it if you marked entries True when GI50 is lower than 20 µM and False when it is not.

* CNC(=O)CNC(=O)C(Cc1ccc(NC(=O)CCCCC(C)=O)cc1)NC(=O)C(CCC(=O)OCc1ccccc1)NC(=O)OC(C)(C)C (configuration not stated) | False

**Query** Given the entry CC(C)(C)OC(=O)NC1CC=CCC1NC(=O)OC(C)(C)C (configuration not stated) , would its reported GI50 be below 20 µM?
**Result** False

**Query** Same for NS(=O)(=O)c1ccc(-c2ccc([As](=O)(O)O)cc2)cc1
**Result** False

----------
- System: SK-MEL-5
- assay: NCI tumour cell line growth inhibition, 48 h
Activity calls are given as the source filed them. No stated cut-off is given here; in the data, active = GI50 up to about 1.1 µM and inactive = higher.
# output must be one of active, inactive

// known answers, use as guide
• CC(C)(C)OC(=O)NCC(CNC(=O)OC(C)(C)C)C(N)=O = inactive
• O=c1cc(NNc2cccc(Cl)c2)[nH]c(=O)[nH]1 = inactive
• C=CCN(c1cc(OC)c2[nH]cc(C)c2c1[N+](=O)[O-])S(C)(=O)=O = inactive
• CCC(C)C(=O)O[C@H]1C(=O)O[C@@H]2C[C@H]3C(C)=CC(=O)[C@@H](O)[C@]3(C)[C@H]3[C@@H](O)[C@H](O)[C@@]4(C)OC[C@]32[C@@H]14 (some centres undefined) = active
• C/C(=N\OCC(O)CNCCSCc1ccccc1)c1ccccc1Cl (centres undefined) = inactive
• O=C(N/N=C1\C(=O)Nc2c(Cl)cc(Cl)cc21)C(=O)Nc1cccc(C(F)(F)F)c1 = inactive
• c1ccc([P+](c2ccccc2)(c2ccccc2)c2ccc(-c3ccc([P+](c4ccccc4)(c4ccccc4)c4ccccc4)cc3)cc2)cc1 = inactive
• O=C(O)C(F)(F)C(F)(F)C(F)(F)C(F)(F)C(F)(F)C(F)(F)C(F)(F)C(F)(F)F = inactive

Here is another compound to look at.
**Query** In this assay, the call recorded for CN(C)CCNC(=O)c1cc(Cl)cc2cc3ccccc3nc12 was what?
**Result** inactive

----------
GI50 for assorted compounds
- Test system: OVCAR-8
- assay: NCI tumour cell line growth inhibition, 48 h
Calls of active or inactive are those of the source. No stated cut-off is given here; in the data, active = GI50 up to about 1.1 µM and inactive = higher.

Solved entries:
• S=C1N(/N=C/c2c3ccccc3cc3ccccc23)C(=N\c2ccccc2)/C(=N/c2ccccc2)N1c1ccccc1 = > 100 µM (inactive)
• CCOc1ncnc2ccc(Cl)c(I)c12 = > 100 µM (inactive)
• COc1ccc(NC(=O)c2cc(OC)cc(OC)c2)cc1 = 80.5 µM (inactive)
• O=C1COC(c2ccccc2O)=NN1CCCN1CCCC1 = > 100 µM (inactive)
• CC1=C[C@@H](C)C[C@]2(C)CC[C@H](O2)[C@]23CC[C@](C(=O)O)(C[C@H](O2)[C@@H]2O[C@@](C)(CC2=O)[C@@H](O)[C@H]2CC[C@@]4(CCC[C@@H](O4)[C@H](C)C(=O)O[C@H]4C[C@H]([C@]5(O)OCC[C@H](C)[C@@H]5O)O[C@H]4C=C1)O2)O3 = > 10 µM (inactive)
• COc1ccc2c(c1)/C(=C\c1c(C)nc3n1CCS3)C(=O)N2 = 37 µM (inactive)
• CSc1ncc2c(n1)-c1ccccc1OC2NC(C)(C)C (configuration not stated) = > 100 µM (inactive)
• C=CCCC(=O)N1CCC(C(=O)OCC)C1=O (configuration not stated) = > 100 µM (inactive)

With those in mind, consider the next compound.
**Query** Which GI50 value belongs to O=C(OCC1OC(n2nc(Cn3nnc(-c4cccnc4)n3)n(-c3cccc4ccccc34)c2=S)C(OC(=O)c2ccccc2)C1OC(=O)c1ccccc1)c1ccccc1 (configuration not stated) ?
**Result** > 100 µM (inactive)

----------
GI50 for assorted compounds
- Test system: RPMI-8226
- assay: NCI tumour cell line growth inhibition, 48 h
Activity calls are given as the source filed them. No stated cut-off is given here; in the data, active = GI50 up to about 1.1 µM and inactive = higher.

Solved entries:
* CSCC1CC(c2ccc(Cl)cc2)=NO1 (stereo not given) | > 100 µM (inactive)
* COc1ccccc1/C=N/N=C(\N)NO | 29.2 µM (inactive)
* CC1=NN(c2nc(N)nc(/C(C#N)=C/c3ccccc3O)n2)C(C)(C)C1 | 17 µM (inactive)
* Cc1c2c(n(CCc3ccc(Cl)cc3)c1C)NC(c1ccccc1)C(C#N)S2(=O)=O (stereo not given) | 3.51 µM (inactive)
* O=CN/C=C/c1cc(O)ccc1O | 26.3 µM (inactive)
* O=C(NCCOC(=O)OCCNC(=O)NC1CCCCC1)NC1CCCCC1 | > 100 µM (inactive)
* CCOP(=O)(OCC)OC1CC(n2cc(C)c(=O)n(C)c2=O)OC1CO[Si](C)(C)C(C)(C)C (stereo not given) | 25.2 µM (inactive)
* CSCCC(NC(=O)OC(C)(C)C)C(=O)NCCNc1ccc(NCCNC(=O)C(CCSC)NC(=O)OC(C)(C)C)c2c1C(=O)c1ccccc1C2=O (stereo not given) | 3.01 µM (inactive)

**Query** Which GI50 value belongs to c1ccc([P+](c2ccccc2)(c2ccccc2)c2ccc(-c3ccc([P+](c4ccccc4)(c4ccccc4)c4ccccc4)cc3)cc2)cc1 ?
**Result** > 100 µM (inactive)

**Query** Same for NCCCCC(=O)c1cccnc1
**Result** > 100 µM (inactive)

**Query** Same for Nc1nc(N)c2nn(-c3ccc(C(=O)O)cc3)nc2n1
**Result** > 100 µM (inactive)

**Query** Same for CC(C)C1(O)C(c2ccccc2)=C(c2ccccc2)C(c2ccccc2)=C1c1ccccc1
**Result** 2.28 µM (inactive)

**Query** Same for Nc1ncnc2c1nc(Cl)n2C1OC2COP(=O)(O)OC2C1O (stereo not given)
**Result** 5.53 µM (inactive)

**Query** Same for CC1O[C@@H]2CCCCC(=O)[C@]2(C)[C@H]1C (stereo not given in full)
**Result** > 100 µM (inactive)

**Query** Same for CC(=O)O.CN1CCN(CN2C(=O)C3C4C=CC(C3C2=O)C2C3C(=O)N(CN5CCN(C)CC5)C(=O)C3C42)CC1 (stereo not given)
**Result** 22.2 µM (inactive)

**Query** Same for COC(=O)C(/C(=N/NC(N)=S)C(=O)Nc1ccccc1[N+](=O)[O-])c1cnc2ccccc2n1 (stereo not given)
**Result** > 100 µM (inactive)

**Query** Same for COc1cc([C@@H]2c3cc4c(cc3[C@H](OC3OC5COC(C(C)C)OC5C(O)C3O)C3COC(=O)[C@@H]32)OCO4)cc(OC)c1O (stereo not given in full)
**Result** 5.2 µM (inactive)

**Query** Same for CC(C)=CCOc1cc(NC(=S)c2ccoc2C)ccc1Cl
**Result** > 100 µM (inactive)

**Query** Same for Nc1cc2ncnn2c(SCC(=O)N/N=C/C(Br)=C\c2ccccc2)n1
**Result** 10.6 µM (inactive)

**Query** Same for C=CCC1(C(=O)OC(C)(C)C)C(OC)=C(C(=O)OC(C)(C)C)C2C1C(C(=O)OC(C)(C)C)=C(OC)C2(CC=C)C(=O)OC(C)(C)C (stereo not given)
**Result** > 100 µM (inactive)

----------
GI50 for assorted compounds
- Tested on: SF-295
- assay: NCI tumour cell line growth inhibition, 48 h
Activity calls are given as the source filed them. Cut-off read from the data, not from the text of the source: active = GI50 up to about 1.1 µM and inactive = higher.

• Cc1cc(N2CCCC2)c([N+](=O)[O-])cc1[N+](=O)[O-] = > 100 µM (inactive)
• O=C1c2ccccc2N2Oc3ccccc3C12c1ccccc1 (stereo not given) = > 100 µM (inactive)
• C=CCCCCOC1C=CC(O)C(CO)O1 (stereo not given) = > 100 µM (inactive)
• CC1O[C@@H]2CCCCC(=O)[C@]2(C)[C@H]1C (stereo not given in full) = > 100 µM (inactive)

**Query** Which GI50 value belongs to CN(CCn1cnc2c1c(=O)n(C)c(=O)n2C)C1CCCCC1 ?
**Result** > 100 µM (inactive)

**Query** Same for CCN(CC)CCN1C(=O)CC2[C@@H]3CCc4cc(OC)ccc4C3CC[C@]2(C)C1=O (stereo not given in full)
**Result** 18.4 µM (inactive)

**Query** Same for O=C(NCC(C(=O)OCc1ccccc1)C(=O)OCc1ccccc1)OCc1ccccc1
**Result** > 100 µM (inactive)

**Query** Same for COC(=O)C(C(=O)C(=O)NC1=C(Cl)C(=O)c2ccccc2C1=O)c1csc(-n2nc(-c3ccccc3)cc2-c2ccccc2)n1 (stereo not given)
**Result** > 100 µM (inactive)

**Query** Same for CN(C)c1ccc(/C=C2\C[C@H]3[C@@H]4CCc5cc(OCCN6CCCC6)ccc5[C@H]4CC[C@]3(C)C2=O)cc1
**Result** 1.86 µM (inactive)

**Query** Same for O=C1Nc2ccccc2/C1=N/NS(=O)(=O)c1ccc(C(=O)O)cc1
**Result** > 100 µM (inactive)
